Reported melting point values are given for each entry in this list.

[
  {
    "smiles-record": "CN(Cc1ccc(N/C(=C2\\C(=O)Nc3ccc([N+](=O)[O-])cc32)c2ccccc2)cc1)c1ccccn1",
    "melting point": "213 to 216 °C"
  },
  {
    "smiles-record": "CN(C)CCS(=O)(=O)N(C)c1ccc(N/C(=C2\\C(=O)Nc3ccccc32)c2ccccc2)cc1",
    "melting point": "165 to 168 °C"
  },
  {
    "smiles-record": "COCCNC(=O)c1ccc(N/C(=C2\\C(=O)Nc3ccccc32)c2ccccc2)cc1",
    "melting point": "277 to 279 °C"
  },
  {
    "smiles-record": "CN(C(=O)CN1C(=O)c2ccccc2C1=O)c1ccc(N/C(=C2\\C(=O)Nc3ccccc32)c2ccccc2)cc1",
    "melting point": "278 to 280 °C"
  },
  {
    "smiles-record": "O=C(O)CCNCc1cccc(N/C(=C2\\C(=O)Nc3ccc([N+](=O)[O-])cc32)c2ccccc2)c1",
    "melting point": "247 to 249 °C"
  },
  {
    "smiles-record": "O=C1Nc2ccc([N+](=O)[O-])cc2/C1=C(/Nc1ccc(CN2CCCCC2)cc1)c1ccc(C(=O)O)cc1",
    "melting point": "230 °C"
  },
  {
    "smiles-record": "O=C(O)CNCCc1ccc(N/C(=C2\\C(=O)Nc3ccc([N+](=O)[O-])cc32)c2ccccc2)cc1",
    "melting point": "242 to 243 °C (dec.)"
  }
]

The reported numbers originate from patent US6855710B2.
